# experimentalDetails: Aqueous solubility of modafinil, alone and in HPβCD solutions
# Format: physicochemical
# testConditions: aqueous with cosolvent or surfactant or cyclodextrin, thermodynamic from solid; 2% HPβCD solution, from 1:1 complex; read-out: amount solubilized

| compound | solubility |
| --- | --- |
| NC(=O)C[S+]([O-])C(c1ccccc1)c1ccccc1 (stereo not shown) [modafinil, 2-(benzhydryl-sulfinyl)acetamide] | ~4400 µg/mL |

---

# experimentalDetails: Aqueous solubility of modafinil, alone and in HPβCD solutions
# Format: physicochemical
# testConditions: aqueous with cosolvent or surfactant or cyclodextrin, thermodynamic from solid; 20% HPβCD solution, from 1:1 complex; read-out: amount solubilized
quantityName: solubility

| molecule | measuredValue |
| --- | --- |
| NC(=O)C[S+]([O-])C(c1ccccc1)c1ccccc1 (stereo not shown) [modafinil, 2-(benzhydryl-sulfinyl)acetamide] | ~39.5 mg/mL |
